Data origin: patent US8765779B2

In this section, each of the compounds is paired with its reported pKi.
- Target Entity: human 5-HT6 receptor (Homo sapiens)
- Construct: host or cells: CHO-K1 cells, stably transfected; membranes prepared in house
- Protocol Text: Human 5-HT6 Receptor Binding Assay ([3H]LSD displacement, scintillation beads)
- Condition Parameters: membranes of CHO-K1 cells with recombinant human 5-HT6, 4 nM [3H]LSD; Table 1, class symbols; read-out: h5-HT6 (Ki)
pKi: −log10 of the molar value.

Example results:
CC(=O)N1CCC2c3ccc(S(=O)(=O)c4ccccc4)cc3OC2C1 (stereo not drawn)    < 6.00
O=S(=O)(Oc1ccc2c(c1)OC1CNCCC21)c1cccc(Cl)c1Cl (stereo not drawn)    > 6.30
CC(C)Oc1ncccc1S(=O)(=O)c1ccc2c3c(oc2c1)CNCC3    > 6.30
CNC(=O)c1c(F)cccc1S(=O)(=O)c1ccc2c(c1)OC1CNCCC21 (stereo not drawn)    < 6.00
CC12CCNCC1Oc1cc(S(=O)(=O)c3ccccn3)ccc12 (racemic)    < 6.00
CC(=O)Nc1ccc(S(=O)(=O)c2ccc3c(c2)C2(C)CCNCC2O3)cc1 (stereo not drawn)    < 6.00
O=S(=O)(Nc1cc(Cl)cc(Cl)c1)c1ccc2c(c1)C1CCNCC1O2 (stereo not drawn)    < 6.00
Cc1ccc(S(=O)(=O)c2ccc3c4c(oc3c2)CNCC4)cc1    > 6.30

Moving on to another compound below.
Short answer for O=S(=O)(c1ccccc1-c1ccccc1)c1cccc2c1OC1CNCCC21 (stereo not drawn) : pKi was > 6.30

* * *

- Target Entity: human 5-HT6 receptor (Homo sapiens, UniProt P50406)
- Construct: host or cells: CHO-K1 cells, stably transfected; membranes prepared in house
- Sequence (P50406 whole entry): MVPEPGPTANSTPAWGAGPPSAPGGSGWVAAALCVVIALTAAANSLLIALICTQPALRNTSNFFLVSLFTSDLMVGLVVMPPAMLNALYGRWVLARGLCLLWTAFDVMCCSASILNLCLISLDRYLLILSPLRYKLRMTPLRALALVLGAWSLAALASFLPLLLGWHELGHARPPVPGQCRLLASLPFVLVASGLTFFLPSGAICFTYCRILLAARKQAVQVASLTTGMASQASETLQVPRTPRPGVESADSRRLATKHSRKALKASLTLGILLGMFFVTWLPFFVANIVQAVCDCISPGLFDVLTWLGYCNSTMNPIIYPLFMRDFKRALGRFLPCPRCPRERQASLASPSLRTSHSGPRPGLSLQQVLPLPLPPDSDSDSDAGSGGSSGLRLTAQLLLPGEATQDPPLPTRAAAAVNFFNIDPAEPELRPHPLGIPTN
- Protocol Text: Human 5-HT6 Receptor Binding Assay ([3H]LSD displacement, scintillation beads)
- Condition Parameters: membranes of CHO-K1 cells with recombinant human 5-HT6, 4 nM [3H]LSD; Table 1, class symbols; read-out: h5-HT6 (Ki)
pKi: −log10 of the molar value.
Measurement Type: pKi

Summary line: O=S(=O)(c1ccc2c3c(oc2c1)[C@@]1(CCOC1)NCC3)c1cc(F)ccc1F (single isomer, unassigned) , human 5-HT6 receptor (Homo sapiens, UniProt P50406), reported pKi = > 6.30

Summary line: O=S(=O)(c1cccc(Cl)c1)c1ccc2c3c(oc2c1)C(C1CCOC1)NCC3 (stereo not shown) , human 5-HT6 receptor (Homo sapiens, UniProt P50406), reported pKi = > 6.30

* * *

- Target Entity: human 5-HT6 receptor (Homo sapiens, UniProt P50406)
- Construct: host or cells: CHO-K1 cells, stably transfected; membranes prepared in house
- Protocol Text: Human 5-HT6 Receptor Binding Assay ([3H]LSD displacement, scintillation beads)
- Condition Parameters: membranes of CHO-K1 cells with recombinant human 5-HT6, 4 nM [3H]LSD; Table 1, class symbols; read-out: h5-HT6 (Ki)
pKi: −log10 of the molar value. Where a name gives a salt, the structure may show the parent alone.
Measurement Type: pKi

O=S(=O)(Nc1cccc2ccccc12)c1ccc2c(c1)C1CCNCC1O2 (stereo not drawn)    < 6.00
COc1cc(OCC2CCOCC2)cc(S(=O)(=O)c2ccc3c(c2)OC2CNCCC32)c1 (stereo not drawn)    > 6.30
CC(C)Oc1cccc(S(=O)(=O)c2ccc3c4c(oc3c2)CNCC4(C)C)c1    > 6.30
CC(C)N1CCC2c3ccc(OS(=O)(=O)c4ccc(Cl)cc4)cc3OC2C1 (stereo not drawn)    < 6.00
CC(C)Oc1cccc(S(=O)(=O)c2ccc3c(c2)OC2CNCCC32)c1 (stereo not drawn) [Example 165]    > 6.30
O=S(=O)(c1ccccc1)c1ccc2c3c(oc2c1)CN(CCO)CC3    > 6.30
CC1CNCc2oc3cc(S(=O)(=O)c4cccc(F)c4)ccc3c21 (stereo not drawn)    > 6.30
CC1(C)CNC2(CCOC2)c2oc3cc(S(=O)(=O)c4ccccc4)ccc3c21 (stereo not drawn)    > 6.30

Short answer for O=S(=O)(Nc1ccc(Cl)cc1)c1ccc2c(c1)C1CCNCC1O2 (stereo not drawn) : pKi was < 6.00

Short answer for CC1NCCc2c1oc1ccc(S(=O)(=O)c3cccc(C(F)(F)F)c3)cc21 (stereo not drawn) : pKi was > 6.30

Short answer for CC(=O)N1CCc2c(oc3cc(S(=O)(=O)c4ccccc4)ccc23)C1 [Example 614, trifluoroacetate] : pKi was > 6.30

Short answer for O=S(=O)(c1ccc2c(c1)OC1CNCCC21)c1cccnc1F (stereo not drawn) [Example 398] : pKi was > 6.30

Short answer for COCCCOc1cccc(S(=O)(=O)c2ccc3c(c2)OC2CNCCC32)c1 (stereo not drawn) : pKi was > 6.30

Short answer for O=S(=O)(c1ccc2c3c(oc2c1)[C@]1(CCOC1)NCC3)c1cc(F)ccc1F (single isomer, unassigned) : pKi was > 6.30

Short answer for COc1cccc(S(=O)(=O)Oc2ccc3c(c2)C2(C)CCNCC2O3)c1 (stereo not drawn) : pKi was < 6.00

Short answer for O=S(=O)(Oc1ccc2c(c1)OC1CNCCC21)c1ccccc1 (stereo not drawn) : pKi was > 6.30

Short answer for CC12CCNCC1Oc1ccc(S(=O)(=O)c3ccc(F)cc3F)cc12 (stereo not drawn) : pKi was 6.00 to 6.30

Short answer for CC1NCCc2c1oc1cc(S(=O)(=O)c3ccccc3)ccc21 (stereo not drawn) : pKi was > 6.30

* * *

- Target Entity: human 5-HT6 receptor (Homo sapiens)
- Construct: host or cells: CHO-K1 cells, stably transfected; membranes prepared in house
- Protocol Text: Human 5-HT6 Receptor Binding Assay ([3H]LSD displacement, scintillation beads)
- Condition Parameters: membranes of CHO-K1 cells with recombinant human 5-HT6, 4 nM [3H]LSD; Table 1, class symbols; read-out: h5-HT6 (Ki)
pKi: −log10 of the molar value.
In this section, each of the molecules is paired with its reported pKi.

O=S(=O)(c1ccc2c3c(oc2c1)CNCC3)C1CCCCC1    < 6.00
O=S(=O)(Nc1ccc2c(c1)C1CCNCC1O2)c1cc2ccccc2o1 (stereo not drawn)    6.00 to 6.30
O=S(=O)(c1ccc2c(c1)OC1CNCCC21)c1cccc2c1OCCO2 (stereo not drawn) [Example 457]    > 6.30
O=S(=O)(Oc1ccc2c(c1)C1CCNCC1O2)c1ccc(Cl)c(Cl)c1 (stereo not drawn)    > 6.30
O=S(=O)(c1ccc2c(c1)OC1CNCCC21)c1cccnc1OCC(F)(F)F (stereo not drawn) [Example 395]    > 6.30

Summary line: CC12CCNCC1Oc1ccc(OS(=O)(=O)c3ccc(C(F)(F)F)cc3)cc12 (stereo not drawn) , human 5-HT6 receptor (Homo sapiens), reported pKi = < 6.00

* * *

- Target Entity: human 5-HT6 receptor (Homo sapiens, UniProt P50406)
- Construct: host or cells: CHO-K1 cells, stably transfected; membranes prepared in house
- Protocol Text: Human 5-HT6 Receptor Binding Assay ([3H]LSD displacement, scintillation beads)
- Condition Parameters: membranes of CHO-K1 cells with recombinant human 5-HT6, 4 nM [3H]LSD; Table 1, class symbols; read-out: h5-HT6 (Ki)
In this section, each of the molecules is paired with its reported Ki.

Example results:
O=S(=O)(c1cccc(F)c1)c1ccc2c3c(oc2c1)C1(CCCC1)NCC3    < 500 nM
O=S(=O)(c1cccc(Cl)c1)c1ccc2c3c(oc2c1)CN(Cc1ccccc1)CC3    < 500 nM
CC1(C)NCCc2c1oc1cc(S(=O)(=O)c3cc(Cl)cnc3N)ccc21    < 500 nM
O=S(=O)(c1cccc(F)c1)c1ccc2c3c(oc2c1)C1(CCOCC1)NCC3    < 500 nM
CC12CCNCC1Oc1cc(S(=O)(=O)c3cccc4c3OC(F)(F)O4)ccc12 (stereo not drawn)    < 500 nM

Short answer for `O=S(=O)(c1ccc(Cl)c(Cl)c1)c1ccc2oc3c(c2c1)CCNC3` : Ki was < 500 nM

Short answer for CCN1CCC2c3ccc(OS(=O)(=O)c4ccc(Cl)cc4)cc3OC2C1 (stereo not drawn) : Ki was > 1000 nM

Short answer for `O=S(=O)(c1cccc(Cl)c1)c1ccc2c3c(oc2c1)CNCC3` : Ki was < 500 nM

Short answer for `COCC1(COC)NCCc2c1oc1cc(S(=O)(=O)c3cccc(F)c3)ccc21` : Ki was < 500 nM

Short answer for `O=S(=O)(c1cccc(OC(F)(F)F)c1)c1ccc2c3c(oc2c1)C1(CCOCC1)NCC3` : Ki was < 500 nM

Short answer for Cc1ccnc(S(=O)(=O)c2ccc3c(c2)OC2CNCCC32C)n1 (racemic) : Ki was > 1000 nM

Short answer for O=S(=O)(Oc1ccc2c(c1)OC1CNCCC21)c1ccc(Oc2ccccc2)nc1 (stereo not drawn) : Ki was > 1000 nM

Short answer for CC12CCNCC1Oc1ccc(OS(=O)(=O)Cc3cccc(C(F)(F)F)c3)cc12 (stereo not drawn) : Ki was < 500 nM
